Molecular target: T1, hVISTA-Fc (R&D systems. Cat. No. 7126-B7) (human, UniProt Q9H7M9 33-194)
T1 construct: Bought antigen; also called human VISTA-Fc; VISTA-FC Human
T1 sequence: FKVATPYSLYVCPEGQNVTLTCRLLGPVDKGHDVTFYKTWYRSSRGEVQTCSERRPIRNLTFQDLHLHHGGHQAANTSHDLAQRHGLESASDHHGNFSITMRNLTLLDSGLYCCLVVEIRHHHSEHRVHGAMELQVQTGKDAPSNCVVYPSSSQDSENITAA
Experiment: Octet (BLI), antibody immobilised on biosensor, antigen in solution
METRIC_NAME: koff (s⁻¹)
Please respond with the number in s⁻¹ and leave the unit unwritten.

*Q* Give its koff value. Item: anti-VISTA antibody 1A12 (IgG form) (antibody, V domains shown) VH: QMQLVESGGGLVEPGRSLRLSCTTSGFSFHDYTMYWVRQVPGKGLEWVSLISWDGTITFYADPVRGRFTISRDNSKNSLYLQMNSLRAEDTAVYYCAKEDRYDYYSGAFDIWGQGTVVTVSS VL: QSALTQPRSVSGSPGQSVTISCTGTSSDVGGYDYVSWYQQHPGKAPKLILNDVNKRPSGVPDRFSGSKSGNTASLTISGLQPDDEADYYCSSFAGSNTLRVFGGGTKLTVLG
*A* 2.74e-05
